Data origin, for the record: patent US20170052184A1

Consider the following binders; for each one, report its expected percent binding.
- ASSAY_TARGET: T1, HCV Core1-169 (hepatitis C virus (HCV-1), UniProt P26664 1-169)
- T1 sequence: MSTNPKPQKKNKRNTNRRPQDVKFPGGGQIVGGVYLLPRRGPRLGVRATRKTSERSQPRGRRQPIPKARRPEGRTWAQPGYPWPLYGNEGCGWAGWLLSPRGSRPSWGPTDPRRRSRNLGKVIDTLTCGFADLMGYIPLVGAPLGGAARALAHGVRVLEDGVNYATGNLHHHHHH
- ASSAY_OVERVIEW: SPR sandwich, capture mAb C11-3
Numbers only, in %.

{"BINDER": "HCV 208A-159 (antibody, V domains shown) VH: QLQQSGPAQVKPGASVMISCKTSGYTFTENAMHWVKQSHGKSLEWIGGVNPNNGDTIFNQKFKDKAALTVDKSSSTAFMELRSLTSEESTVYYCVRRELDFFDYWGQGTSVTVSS VL: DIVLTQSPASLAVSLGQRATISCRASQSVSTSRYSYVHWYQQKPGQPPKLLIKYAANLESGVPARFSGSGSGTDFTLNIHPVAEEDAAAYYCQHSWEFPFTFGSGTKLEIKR", "expected percent binding (%)": 4.6}

QUERY: Which expected percent binding value belongs to HCV 208B-1096 (antibody, V domains shown) VH: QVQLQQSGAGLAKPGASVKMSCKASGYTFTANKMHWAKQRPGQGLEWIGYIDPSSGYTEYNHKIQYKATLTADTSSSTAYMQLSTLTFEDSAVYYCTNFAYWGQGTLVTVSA VL: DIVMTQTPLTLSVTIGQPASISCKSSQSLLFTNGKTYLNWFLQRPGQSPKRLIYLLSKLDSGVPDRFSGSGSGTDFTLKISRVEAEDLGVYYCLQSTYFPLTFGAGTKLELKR ?
RESULT: 15.1
